concentration of Proto IX in tissue, Liver overview
# System: DBA/2 Ha mice with SMT-F subcutaneous tumors
# assay-remarks: Proto IX content of tissues of tumor-bearing mice fed the agent (Example 6)
# Assay type: in vivo
# condition-context: 2000 ppm in feed
# Method: In this Example the enzyme-inhibiting agents were added to the feed of tumor-bearing mice; for some of the mice, used as a control, no agent was added to the feed. The mice were then sacrificed and their kidneys, intestines, adrenal glands, liver and tumor were removed and analyzed for their content of Proto IX. The following enzyme-inhibiting agents were employed: [drawing 10] […]

Recorded results for 3 compounds are shown here.
COC(=O)c1cc(Oc2ccc(C(F)(F)F)cc2Cl)ccc1[N+](=O)[O-] [Agent 6b]: 12 ug of Proto IX per gram of tis
C#CCN1C(=O)C(F)Oc2cc(F)c(-n3nc(C)n(C(F)F)c3=O)cc21 (centres unmarked) [Agent 6g]: 7 ug of Proto IX per gram of tis
CC(C)Oc1cc(-n2c(=O)n3n(c2=S)CCCC3)c(F)cc1Cl [Agent 6e]: 8 ug of Proto IX per gram of tis

[ask] Please list concentration of Proto IX in tissue, Liver recorded for the compound C#CCN1C(=O)COc2cc(F)c(-n3nc4c(c3Cl)CCCC4)cc21 [Agent 6i]
[reply] 14 ug of Proto IX per gram of tis

[ask] Please list concentration of Proto IX in tissue, Liver recorded for the compound Cc1nn(-c2cc(NS(C)(=O)=O)c(Cl)cc2Cl)c(=O)n1C(F)F [Agent 6c]
[reply] 25 ug of Proto IX per gram of tis

---

# Tested on: DBA/2 Ha mice with SMT-F subcutaneous tumors
# assay-remarks: Proto IX content of tissues of tumor-bearing mice fed the agent (Example 6)
# Assay type: in vivo
# condition-context: 2000 ppm in feed; samples diluted with 3 parts basic acetone to one part sample
Proto IX Mean Cps per gram, Intestine overview
Express the result in Cps per gram × 10^3 but write the number alone.

Recorded results for 4 molecules are shown here.
CC(C)Oc1cc(-n2nc(C(C)(C)C)oc2=O)c(Cl)cc1Cl: 5565
CC(C)Oc1cc(-n2c(=O)n3n(c2=S)CCCC3)c(F)cc1Cl: 2069
CCOC(=O)C(C)Oc1ccc(Oc2cc(-n3nc(C)n(C(F)F)c3=O)c(F)cc2Cl)cc1 (centres unmarked): 5870
Cc1nn(-c2cc(NS(C)(=O)=O)c(Cl)cc2Cl)c(=O)n1C(F)F: 9937

In the following, a different molecule is considered.
[ask] Please list Proto IX Mean Cps per gram, Intestine recorded for the molecule COC(=O)c1cc(Oc2ccc(C(F)(F)F)cc2Cl)ccc1[N+](=O)[O-]
[reply] 5577

---

concentration of Proto IX in tissue, Liver overview
# System: DBA/2 Ha mice with SMT-F subcutaneous tumors
# assay-remarks: Proto IX content of tissues of tumor-bearing mice fed the agent (Example 6)
# Assay type: in vivo
# condition-context: 2000 ppm in feed

[ask] Please list concentration of Proto IX in tissue, Liver recorded for the molecule CC(C)Oc1cc(-n2c(=O)n3n(c2=O)CCCC3)c(F)cc1Cl
[reply] 8 ug of Proto IX per gram of tis

[ask] Please list concentration of Proto IX in tissue, Liver recorded for the molecule CCCn1c(=O)ccc2cc(F)c(-n3nc(C)n(C(F)F)c3=O)cc21
[reply] 11 ug of Proto IX per gram of tis

[ask] Please list concentration of Proto IX in tissue, Liver recorded for the molecule C#CCN1C(=O)COc2cc(F)c(N=c3sc(=S)n4n3CCCC4)cc21
[reply] 5 ug of Proto IX per gram of tis

[ask] Please list concentration of Proto IX in tissue, Liver recorded for the molecule CCOC(=O)C(C)Oc1ccc(Oc2cc(-n3nc(C)n(C(F)F)c3=O)c(F)cc2Cl)cc1 (centres unmarked)
[reply] 39 ug of Proto IX per gram of tis

[ask] Please list concentration of Proto IX in tissue, Liver recorded for the molecule CC(C)Oc1cc(-n2nc(C(C)(C)C)oc2=O)c(Cl)cc1Cl
[reply] 14 ug of Proto IX per gram of tis

---

# Tested on: DBA/2 Ha mice with SMT-F subcutaneous tumors
# assay-remarks: Proto IX content of tissues of tumor-bearing mice fed the agent (Example 6)
# Assay type: in vivo
# condition-context: 2000 ppm in feed Days 2-10, sacrificed Day 10 (6j Day 7)
Proto IX Mean Cps per gram, Adrenal overview
Number first, unit second.

Recorded results for 4 compounds are shown here.
CCCn1c(=O)ccc2cc(F)c(-n3nc(C)n(C(F)F)c3=O)cc21 [Agent 6f]: 5611 Cps per gram × 10^3
CC(C)Oc1cc(-n2c(=O)n3n(c2=S)CCCC3)c(F)cc1Cl [Agent 6e]: 1331 Cps per gram × 10^3
C#CCN1C(=O)COc2cc(F)c(-n3nc4c(c3Cl)CCCC4)cc21 [Agent 6i]: 36940 Cps per gram × 10^3
CC(C)Oc1cc(-n2c(=O)n3n(c2=O)CCCC3)c(F)cc1Cl [Agent 6h]: 2259 Cps per gram × 10^3

In the following, a different compound is considered.
[ask] Please list Proto IX Mean Cps per gram, Adrenal recorded for the compound CCOC(=O)C(C)Oc1ccc(Oc2cc(-n3nc(C)n(C(F)F)c3=O)c(F)cc2Cl)cc1 (centres unmarked) [Agent 6a]
[reply] 6572 Cps per gram × 10^3

---

# assay-remarks: Tolerance of intraperitoneal injection in mice
# condition-context: mouse, in vivo, ip, 60% corn oil and 40% DMSO, read-out: tolerated dose
result-type: MTD (mg/kg)
Express the result in mg/kg but write the number alone.

[ask] Please list MTD recorded for the compound Cc1nn(-c2cc(NS(C)(=O)=O)c(Cl)cc2Cl)c(=O)n1C(F)F
[reply] 100

---

# assayed-target: Protoporphyrinogen Oxidase
# assay-remarks: Protoporphyrinogen oxidase assay using isolated enzyme
# condition-context: isolated pea etioplast enzyme; read-out: I50
result-type: IC50 (nM)
Express the result in nM but write the number alone.

[ask] Please list IC50 recorded for the compound COC(=O)c1cc(Oc2ccc(C(F)(F)F)cc2Cl)ccc1[N+](=O)[O-]
[reply] 80

---

# Test system: DBA/2 Ha mice with SMT-F subcutaneous tumors
# assay-remarks: Proto IX content of tissues of tumor-bearing mice fed the agent (Example 6)
# Format: in vivo
# condition-context: 2000 ppm in feed Days 2-10, sacrificed Day 10 (6j Day 7)
result-type: Weight of Tumor as excised (mg)
Express the result in mg but write the number alone.

Recorded results for 5 compounds are shown here.
CC(C)Oc1cc(-n2c(=O)n3n(c2=O)CCCC3)c(F)cc1Cl: 192
CCCn1c(=O)ccc2cc(F)c(-n3nc(C)n(C(F)F)c3=O)cc21: 69
CC(C)Oc1cc(-n2nc(C(C)(C)C)oc2=O)c(Cl)cc1Cl: 294
C#CCN1C(=O)COc2cc(F)c(N=c3sc(=S)n4n3CCCC4)cc21: 11
CCOC(=O)C(C)Oc1ccc(Oc2cc(-n3nc(C)n(C(F)F)c3=O)c(F)cc2Cl)cc1 (stereo not shown): 143

[ask] Please list Weight of Tumor as excised recorded for the compound C#CCN1C(=O)C(F)Oc2cc(F)c(-n3nc(C)n(C(F)F)c3=O)cc21 (stereo not shown)
[reply] 250

[ask] Please list Weight of Tumor as excised recorded for the compound Cc1nn(-c2cc(NS(C)(=O)=O)c(Cl)cc2Cl)c(=O)n1C(F)F
[reply] 157

[ask] Please list Weight of Tumor as excised recorded for the compound COC(=O)c1cc(Oc2ccc(C(F)(F)F)cc2Cl)ccc1[N+](=O)[O-]
[reply] 90

[ask] Please list Weight of Tumor as excised recorded for the compound C#CCN1C(=O)COc2cc(F)c(-n3nc4c(c3Cl)CCCC4)cc21
[reply] 20

[ask] Please list Weight of Tumor as excised recorded for the compound CC(C)Oc1cc(-n2c(=O)n3n(c2=S)CCCC3)c(F)cc1Cl
[reply] 165

---

# assay-remarks: LD50, single oral dose, mice
# condition-context: mouse, in vivo, single oral dose in corn oil and 5% of the agent, 14-day period
result-type: LD50 at 336 h

[ask] Please list LD50 at 336 h recorded for the compound Cc1nn(-c2cc(NS(C)(=O)=O)c(Cl)cc2Cl)c(=O)n1C(F)F
[reply] > 700 mg/kg

---

# System: HeLa cells
# assay-remarks: Proto IX in HeLa cells and culture medium, cell growth observations (Example 8)
# Type: cell-based, human
# condition-context: Homo sapiens, HeLa; 100 μM agent, compared to the control; read-out: inhibiting effect on cell growth (rough observations)
# Procedure: In a manner similar to Examples 1 and 2, cultures of HeLa cells were incubated in the presence of 100 μM of various treating agents, listed below. The agent was added in dilute solution in dimethylsulfoxide (DMSO),and the controls contained 0.2% DMSO v/v. […] The resulting extract was analyzed for proto IX content. The separated culture medium was also analyzed fluorometrically for Proto IX content. […]
result-type: inhibition at 100 µM (%)
Express the result in % but write the number alone.

COC(=O)c1cc(Oc2ccc(Cl)cc2Cl)ccc1[N+](=O)[O-] [Compound 8ap]: 50
COc1ccc(OC)c(CNC(=O)c2ccc(Cl)cc2)c1 [Compound 8aj]: 25
C#CCOc1cc(-n2ncc(=O)n(C)c2=O)c(F)cc1Cl [Compound 8t]: 50
CCOC(=O)C(C)Oc1ccc(Cn2c(C)nn(-c3cc(OC)c(Cl)cc3F)c2=O)cc1 (stereo not shown) [Compound 8ag]: 25
CCOC(=O)C(C)OC(=O)c1cc(Oc2ccc(C(F)(F)F)cc2Cl)ccc1[N+](=O)[O-] (stereo not shown) [Compound 8an]: 50
CC(C)Oc1cc(-n2oc(=O)n(C)c2=O)c(F)cc1Cl [Compound 8ai]: 50

In the following, a different compound is considered.
[ask] Please list inhibition at 100 µM recorded for the compound C#CCOc1cc(N2N=CCN(C)C2=O)c(F)cc1Cl [Compound 8u]
[reply] 60

From: patent US5298502A
